Test system: D54MG
assay overview: Proliferation panel assay, D54MG
Type: cell-based
measurement context: 120 h, Glioblastoma, 5 days, read-out: Cellular Proliferation EC50
assay readout: EC50 (nM)

1. Cc1[nH]c(-c2cc(NS(C)(=O)=O)ccc2Oc2ccccc2)c2c1C(=O)CCC2
210

---

experimental system: BRD4 (BDII_E352-M457) (Homo sapiens (Human))
assay overview: TR-FRET bromodomain binding assay, BRD4 second bromodomain
measurement context: His-tagged BD2, 30 nM Alexa647 probe
assay readout: log10(Ki) (log10 of the value in nM)

1) Cc1[nH]c(-c2cc(C(=O)Nc3nccs3)ccc2Oc2ccccc2)c2c1C(=O)CCC2
4.35
2) Cc1[nH]c(-c2ccccc2OCc2ccc3[nH]ncc3c2)c2c1C(=O)CCC2
3.69
3) Cc1[nH]c(-c2ccc(S(C)(=O)=O)cc2)c2c1C(=O)CCC2
3.58
4) Cc1[nH]c(-c2cc(NS(C)(=O)=O)ccc2Oc2ccccc2)c2c1C(=O)CC(CC(C)C)C2 (stereo not shown)
3.32
5) CCS(=O)(=O)Nc1ccc(OC2CCC(F)(F)CC2)c(-c2[nH]c(C)c3c2CCCC3=O)c1
1.94
6) Cc1[nH]c(-c2ccccc2OCC2CCCO2)c2c1C(=O)CCC2 (stereo not shown)
3.67
7) Cc1c2c(c(-c3cc(NS(C)(=O)=O)ccc3Oc3ccccc3)n1C)CCCC2=O
2.33
8) COc1cccc(-c2[nH]c(C)c3c2CCCC3=O)c1
3.65
9) Cc1[nH]c(-c2cc(NS(=O)(=O)N(C)C)ccc2Oc2ccc(F)cc2F)c2c1C(=O)CCC2
2.28
10) Cc1[nH]c(-c2ccccc2OCC2CCOCC2)c2c1C(=O)CCC2
3.29
